B1: Twister Ribozyme (parent)
chain: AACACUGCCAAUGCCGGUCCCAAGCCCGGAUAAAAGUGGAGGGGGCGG

- Variants of: B1
- protocol: self-cleavage, relative activity (ratio to wild type); higher = more cleavage; co-transcriptional
Binary call on self-cleavage: yes from 0.2 upward, no beneath that.

Solved entries:
AACACCGCCAAUGCCGGUCCCUAGCCCGGAUAAAAGUGGAGGGGGCGG [U6C A22U] : no
AACACUGCCAAUGCCGGUCCCAAGCCCGGAUACAAGUGGAGUGGGCGG [A33C G42U] : no

Inquiry: hey, is self-cleavage for this one >= 0.2? AACACUGCCAAUGCCGGUCCCAAGCCCGGAUGAAAGUGGAGGGGGCGU [A32G G48U]
Reply text: yes

Inquiry: Given the entry AACACUUCCAAUGCCGGUCCCAAGCCCGGAUAAAAGUGGAGGCGGCGG [G7U G43C] , answer whether its self-cleavage meets or surpasses 0.2.
Reply text: no

Inquiry: Has AACCCUGCCAAUGCCGGUCCCAAGCCCGGAUAAAAGUUGAGGGGGCGG [A4C G38U] a recorded self-cleavage greater than or equal to 0.2?
Reply text: yes

Inquiry: self-cleavage >= 0.2 for AACUCUGCCAAUGCCAGUCCCAAGCCCGGAUAAAAGUGGAGGGGGCGG [A4U G16A] ?
Reply text: no

Inquiry: Please tell me: is the variant AACACUGCCAAUGCCAGUCCCACGCCCGGAUAAAAGUGGAGGGGGCGG [G16A A23C] at or over 0.2 in terms of self-cleavage?
Reply text: no

Inquiry: Would you say AACAGUGCCAAUGCCGGUCCCAAGCCCGGAUAAUAGUGGAGGGGGCGG [C5G A34U] shows self-cleavage at minimum 0.2?
Reply text: yes

Inquiry: Reported self-cleavage reaches at least 0.2 for AACACUGCCAAAGCCGGUCCCAAGCCCGGAUAGAAGUGGAGGGGGCGG [U12A A33G] ?
Reply text: yes

Inquiry: Evaluate AACCCUGCCAAUGCCGGUCCCAAGCCCGGAUAAAAGUGUAGGGGGCGG [A4C G39U] : self-cleavage at minimum 0.2?
Reply text: no

Inquiry: Check the entry AACACUGCCAUUGCCGGCCCCAAGCCCGGAUAAAAGUGGAGGGGGCGG [A11U U18C] : does self-cleavage equal or exceed 0.2?
Reply text: yes

Inquiry: Is self-cleavage at least 0.2? Consider AACACUGCCAAUGCCGGUCCCAAGCACGGAUAAUAGUGGAGGGGGCGG [C26A A34U]
Reply text: no

Inquiry: Does self-cleavage meet or surpass 0.2 for AACACUGCCAAUGUCGGUCCCAAGCCCGAAUAAAAGUGGAGGGGGCGG [C14U G29A] ?
Reply text: yes

Inquiry: Please tell me: is the variant AACACUGCCAAGGCCGGUCCCAAGCCCGGAUAAAAGUGGAGGGGACGG [U12G G45A] at or over 0.2 in terms of self-cleavage?
Reply text: yes

Inquiry: Hi team, for AACACUGCCAAUGUCGGUCCCAAGCCCGGAUAAAAGUGGAGGGGGUGG [C14U C46U] , is the recorded self-cleavage at or above 0.2?
Reply text: yes

Inquiry: State whether the measured self-cleavage reaches 0.2, counting equality as reaching it, for AACACUGCUAAUGCCGGUCCCAAGCCCGGAUAAAAGUGGAGGGGACGG [C9U G45A]
Reply text: yes

Inquiry: Test whether the variant AACACUGCCAAUCCCCGUCCCAAGCCCGGAUAAAAGUGGAGGGGGCGG [G13C G16C] records self-cleavage of 0.2 or higher.
Reply text: no

Inquiry: Hello, I need to know if AACACUACCAAUGCCGGUCCCAAGCCCGGAUAAAAGUGCAGGGGGCGG [G7A G39C] has measured self-cleavage not below 0.2. Thanks!
Reply text: no

Inquiry: Say whether AACACUGCCAAUGCCGGUCCCAAGCCCGGAUAAAAGUGGAAGGGGCGU [G41A G48U] shows self-cleavage of 0.2 or more.
Reply text: yes

Inquiry: Could you verify whether the entry AACACUGCCAAUGCCGGUCCCGAGCCCGGAUAAAAGUGGAGGGGGCGG [A22G] shows self-cleavage of no less than 0.2?
Reply text: yes
